Tested on: Staphylococcus aureus
protocol summary: Antibiofilm activity against methicillin-resistant Staphylococcus aureus ATCC BAA-44 at 5 uM relative to control
Assay type: functional
Exercise: for every item that follows, state its recorded Activity.
Return type: number; implicit unit %.

Exercise: Request the reported Activity associated with CCC1C(c2ccc(C(F)(F)F)cc2)=C(O)C(=O)N1Cc1ccc(OC)cc1OC (stereo not given)
Solution: 63

Exercise: Request the reported Activity associated with CCCCCN1C(=O)C(O)=C(c2ccc(C(F)(F)F)cc2)C1CC (stereo not given)
Solution: 58

Exercise: Request the reported Activity associated with CCC1C(c2ccc(C(F)(F)F)cc2)=C(O)C(=O)N1c1ccc(F)cc1 (stereo not given)
Solution: 22

Exercise: Request the reported Activity associated with CC(C)C1C(c2ccc(C(F)(F)F)cc2)=C(O)C(=O)N1c1ccccc1 (stereo not given)
Solution: -5

Exercise: Request the reported Activity associated with CCC1C(c2ccc(C(F)(F)F)cc2)=C(O)C(=O)N1c1ccc(Br)cc1 (stereo not given)
Solution: 34

Exercise: Request the reported Activity associated with CCCCCCN1C(=O)C(O)=C(c2ccc(C(F)(F)F)cc2)C1CC (stereo not given)
Solution: 59

Exercise: Request the reported Activity associated with CC1C(c2ccc(C(F)(F)F)cc2)=C(O)C(=O)N1c1ccccc1 (stereo not given)
Solution: -26

Exercise: Request the reported Activity associated with CCC1C(c2ccc(C(F)(F)F)cc2)=C(O)C(=O)N1c1ccccc1 (stereo not given)
Solution: 5

Exercise: Request the reported Activity associated with CCC1C(c2ccc(C(F)(F)F)cc2)=C(O)C(=O)N1CCc1ccccc1 (stereo not given)
Solution: 23

Exercise: Request the reported Activity associated with CCC1C(c2ccc(C(F)(F)F)cc2)=C(O)C(=O)N1CCC(C)C (stereo not given)
Solution: 47

---

System: Staphylococcus aureus
protocol summary: Antimicrobial activity against methicillin-sensitive Staphylococcus aureus ATCC 25923 assessed as reduction in microbial growth at pH 9.0
Format: functional
Exercise: for every item that follows, state its recorded MIC.

Exercise: Request the reported MIC associated with CC1C(c2ccc(C(F)(F)F)cc2)=C(O)C(=O)N1c1ccccc1 (stereo not given)
Solution: 16 µg/mL

Exercise: Request the reported MIC associated with CCC1C(c2ccc(C(F)(F)F)cc2)=C(O)C(=O)N1Cc1cccs1 (stereo not given)
Solution: 32 µg/mL

Exercise: Request the reported MIC associated with CCCCCCCN1C(=O)C(O)=C(c2ccc(C(F)(F)F)cc2)C1CC (stereo not given)
Solution: 32 µg/mL

Exercise: Request the reported MIC associated with CCC1C(c2ccc(C(F)(F)F)cc2)=C(O)C(=O)N1c1ccc(OC)c(OC)c1 (stereo not given)
Solution: 64 µg/mL

Exercise: Request the reported MIC associated with CCC1C(c2ccc(C(F)(F)F)cc2)=C(O)C(=O)N1Cc1ccc(OC)cc1OC (stereo not given)
Solution: > 256 µg/mL

---

System: Staphylococcus aureus
protocol summary: Antimicrobial activity against methicillin-sensitive Staphylococcus aureus ATCC 25923 assessed as reduction in microbial growth at pH 9.0
Type: functional
Exercise: for every item that follows, state its recorded MIC.
Return type: number; implicit unit µg/mL.

Exercise: Request the reported MIC associated with CCC1C(c2ccc(C(F)(F)F)cc2)=C(O)C(=O)N1CCC(C)C (stereo not given)
Solution: 64

Exercise: Request the reported MIC associated with CC(C)C1C(c2ccc(C(F)(F)F)cc2)=C(O)C(=O)N1c1ccccc1 (stereo not given)
Solution: 16

Exercise: Request the reported MIC associated with CCC1C(c2ccc(C(F)(F)F)cc2)=C(O)C(=O)N1c1ccccn1 (stereo not given)
Solution: 32

Exercise: Request the reported MIC associated with CCC1C(c2ccc(C(F)(F)F)cc2)=C(O)C(=O)N1c1ccc(F)cc1 (stereo not given)
Solution: 16

Exercise: Request the reported MIC associated with CCC1C(c2ccc(C(F)(F)F)cc2)=C(O)C(=O)N1c1ccccc1 (stereo not given)
Solution: 16

Exercise: Request the reported MIC associated with CCC1C(c2ccc(C(F)(F)F)cc2)=C(O)C(=O)N1CCc1ccccc1 (stereo not given)
Solution: 64

Exercise: Request the reported MIC associated with CCCCCN1C(=O)C(O)=C(c2ccc(C(F)(F)F)cc2)C1CC (stereo not given)
Solution: 32

Exercise: Request the reported MIC associated with CCCCCCN1C(=O)C(O)=C(c2ccc(C(F)(F)F)cc2)C1CC (stereo not given)
Solution: 32

Exercise: Request the reported MIC associated with CCC1C(c2ccc(C(F)(F)F)cc2)=C(O)C(=O)N1c1ccc(Br)cc1 (stereo not given)
Solution: 32
